Biological target: NAD-dependent protein deacylase sirtuin-6 (Homo sapiens, UniProt Q8N6T7)
Sequence (Q8N6T7 whole entry, the tested form may be a part): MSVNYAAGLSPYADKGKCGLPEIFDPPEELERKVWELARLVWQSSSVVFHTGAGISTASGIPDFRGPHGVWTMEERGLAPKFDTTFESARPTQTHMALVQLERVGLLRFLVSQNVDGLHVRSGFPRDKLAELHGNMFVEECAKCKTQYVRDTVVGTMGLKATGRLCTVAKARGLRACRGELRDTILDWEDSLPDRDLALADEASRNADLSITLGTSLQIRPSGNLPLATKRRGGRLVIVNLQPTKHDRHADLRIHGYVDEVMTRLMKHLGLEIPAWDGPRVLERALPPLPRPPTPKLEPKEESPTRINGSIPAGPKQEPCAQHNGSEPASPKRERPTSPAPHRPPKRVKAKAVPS
Experiment: Inhibition of human SIRT6 (1 to 294 residues) expressed in Escherichia coli Rosetta (DE3) at 250 uM using H3K9AcWW as substrate preincubated for 15 mins followed by substrate addition measured after 1 hr by HPLC analysis relative to control
The source made the active and inactive calls. The calls are words filed in the database; no cut-off is given here. Residues, ends and D or L forms follow the SMILES beside them. *: point of attachment. X4 = O=C(O)CCNC(=O)CCC*; X13 = CCCCCCNC(=O)CCC*; X11 = CNC(=O)CCC*
metric: inhibition

CNC(=O)CCCSC[C@H](NC(=O)[C@H](CCCNC(=N)N)NC(=O)[C@H](C)NC(=O)[C@@H](NC(=O)[C@H](CCC(N)=O)NC(=O)[C@@H](N)CCCCN)[C@@H](C)O)C(=O)N[C@@H](CO)C(=O)N[C@H](C(=O)NCC(=O)NCC(=O)N[C@@H](CCCCN)C(=O)O)[C@@H](C)O (H-KQTARC(X11)STGGK-OH) | inactive
CCCCCCNC(=O)CCCSC[C@H](NC(=O)[C@H](CCCNC(=N)N)NC(=O)[C@H](C)NC(=O)[C@@H](NC(=O)[C@H](CCC(N)=O)NC(=O)[C@@H](N)CCCCN)[C@@H](C)O)C(=O)N[C@@H](CO)C(=O)N[C@H](C(=O)NCC(=O)NCC(=O)N[C@@H](CCCCN)C(=O)O)[C@@H](C)O (H-KQTARC(X13)STGGK-OH) | inactive
C[C@H](NC(=O)[C@@H](NC(=O)[C@H](CCC(N)=O)NC(=O)[C@@H](N)CCCCN)[C@@H](C)O)C(=O)N[C@@H](CCCNC(=N)N)C(=O)N[C@@H](CSCCCC(=O)NCCC(=O)O)C(=O)N[C@@H](CO)C(=O)N[C@H](C(=O)NCC(=O)NCC(=O)N[C@@H](CCCCN)C(=O)O)[C@@H](C)O (H-KQTARC(X4)STGGK-OH) | 54%
